B1: HDV Ribozyme (parent)
chain: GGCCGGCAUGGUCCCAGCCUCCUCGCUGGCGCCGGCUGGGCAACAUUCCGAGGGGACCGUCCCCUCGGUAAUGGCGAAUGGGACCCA

- Variants of: B1
- PROTOCOL_TEXT: self-cleavage, relative activity (ratio to wild type); higher = more cleavage; co-transcriptional
Record y whenever self-cleavage is at 0.4 or higher; record n when lower.

> print(dat)
                              sequence.data  label.value
1  GGCCGGCAUGGUCCCAGCCUCCUCGCUGGAGCCGGCUGGGCAACAUUCCGAGGGGACCGUCCACUCGGUAAUGGCGAAUGGGACCCA [C30A C63A]            y

Exercise: Is it the case that GGCCGGCAUGGUCCCAGCCUCCUCGCUGGCGCCGGCUGGGCAACAUUCCGAGGGGACCGUCCCCUCGGAAAUGGUGAAUGGGACCCA [U69A C75U] has self-cleavage reaching or exceeding 0.4?
Key: n

Exercise: Check this variant for self-cleavage at or above 0.4: GGCGGGCAUUGUCCCAGCCUCCUCGCUGGCGCCGGCUGGGCAACAUUCCGAGGGGACCGUCCCCUCGGUAAUGGCGAAUGGGACCCA [C4G G10U]
Key: n

Exercise: Assess whether reported self-cleavage for GGCCGGCAUGGUCCCAGCCUCCUCGCUGGCGCCGGCCGGGCAACAUUCCGAGGGGACCGUCCCCUCGGUAAUGGCUAAUGGGACCCA [U37C G76U] sits at 0.4 or higher.
Key: y

Exercise: Reported self-cleavage at or above 0.4? GACCGGCAUGGUCCCAGCCUCCUCGCUGGCGCCGGCUGGGCAACAUUCCGAGGGGCCCGUCCCCUCGGUAAUGGCGAAUGGGACCCA [G2A A56C]
Key: n

Exercise: Would you say GGCCGGCAUGGUCCCAGCCUCCUCGCUGGCGCCGGCUGGGCAACAUUCCGAGGGGACCGUCCCCUCGGUUAAGGCGAAUGGGACCCA [A70U U72A] shows self-cleavage at minimum 0.4?
Key: y

Exercise: Could you tell me if the measured self-cleavage of GGCCGGCAUGGACCCAGCCUCCUCGCUGGCGCCGGCUGGGCAACAUUCCGAGGGUACCGUCCCCUCGGUAAUGGCGAAUGGGACCCA [U12A G55U] reaches 0.4 or more?
Key: n

Exercise: Is reported self-cleavage greater than or equal to 0.4 here: GGCCGGCAUGGUCCCGGCCUCCUCGCUGGCGUCGGCUGGGCAACAUUCCGAGGGGACCGUCCCCUCGGUAAUGGCGAAUGGGACCCA [A16G C32U]
Key: y

Exercise: Can GGCCGGCAUGGUCCCAGCCUCCUCGCUGGCGCCGACUGGGCAACAGUCCGAGGGGACCGUCCCCUCGGUAAUGGCGAAUGGGACCCA [G35A U46G] be said to have self-cleavage at or above 0.4?
Key: n
